Source of measurements: patent US20240336608A1

target: recombinant IL4I1 (Homo sapiens, UniProt Q96RQ9); assay: IL4I1 Enzymatic Assay (Amplex Red/HRP coupled detection of H2O2, fluorescence); conditions: 1 nM recombinant IL4I1; four-hour pre-incubation with compound; 1 mM each Phe, Tyr, Trp; ten-point titration
Sequence (Q96RQ9 22-567): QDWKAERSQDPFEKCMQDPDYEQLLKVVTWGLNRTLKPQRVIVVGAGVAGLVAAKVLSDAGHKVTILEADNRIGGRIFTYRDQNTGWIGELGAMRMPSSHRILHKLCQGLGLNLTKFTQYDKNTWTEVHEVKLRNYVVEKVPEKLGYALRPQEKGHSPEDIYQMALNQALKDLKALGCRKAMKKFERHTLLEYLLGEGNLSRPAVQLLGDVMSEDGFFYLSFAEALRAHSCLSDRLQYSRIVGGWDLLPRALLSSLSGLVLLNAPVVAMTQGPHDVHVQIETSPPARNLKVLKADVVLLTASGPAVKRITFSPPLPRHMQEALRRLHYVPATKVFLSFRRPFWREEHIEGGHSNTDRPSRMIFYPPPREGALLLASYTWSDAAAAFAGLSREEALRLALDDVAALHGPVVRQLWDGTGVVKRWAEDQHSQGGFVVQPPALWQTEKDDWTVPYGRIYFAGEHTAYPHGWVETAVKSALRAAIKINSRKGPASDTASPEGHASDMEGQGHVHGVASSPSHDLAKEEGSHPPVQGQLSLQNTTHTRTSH
READOUT KIND: EC50 (nM)

molecule=O=C(NCc1ccc(-c2ccccc2)nn1)c1cn(C2COC2)nn1 readout_kind=EC50 unit_of_measure=nM measured_number=209
molecule="CC(C)(O)Cn1cc(C(=O)NCc2nnc(-c3ccccc3)s2)nn1 [Example 201]" readout_kind=EC50 unit_of_measure=nM measured_number=226
molecule=CC(C)(C(N)=O)n1cc(C(=O)NCc2nnc(-c3ccccc3)s2)nn1 readout_kind=EC50 unit_of_measure=nM measured_number=12
molecule=Cc1ccc(-n2cc(C(=O)NCc3nnc(-c4cn[nH]c4)s3)nn2)c(C)n1 readout_kind=EC50 unit_of_measure=nM measured_number=22
molecule="CC(CC(F)(F)F)n1cc(C(=O)NCc2nnc(-c3ccccc3)s2)nn1 (single isomer, unassigned) [Example 63]" readout_kind=EC50 unit_of_measure=nM measured_number=18

P = Cc1ccc(-n2cc(C(=O)NCc3nnc(-c4ccccc4Cl)s3)nn2)c(C)n1
Q = O=C(NCc1ccc(-c2ccccc2)nn1)c1cn(CC(F)F)nn1
Prompt: Given P and given Q , which shows the smaller recorded EC50? Could you answer with the label of the item you picked?
Response: Q
(Q: 21 nM, P: 82 nM)

a = Cc1ncccc1-n1cc(C(=O)NCc2nnc(-c3ccccc3)s2)nn1
b = Cc1ccc(-n2cc(C(=O)NCc3nnc(-c4ccncc4)s3)nn2)c(C)n1
Prompt: Given a and given b , which shows the smaller recorded EC50? Could you answer with the label of the item you picked?
Response: b
(b: 16 nM, a: 86 nM)

P = CC1(n2cc(C(=O)NCc3nnc(-c4ccccc4)s3)nn2)CC(F)(F)C1
Q = O=C(NCc1nnc(-c2ccccc2)s1)c1cn(CC2(O)CC2)nn1
R = CC(NC(=O)c1cn(CC(F)F)nn1)c1nnc(-c2ccccc2)s1 (single isomer, unassigned) [Example 252]
S = Cn1ccc(C(=O)NCc2nnc(-c3ccccc3)s2)n1
T = O=C(NCc1nnc(-c2ccccc2)s1)c1cn(CCO)nn1
Prompt: Put the molecules in ascending order of EC50. In your reply, arrange the labels in the requested order.
Response: T, R, Q, S, P
